conditions: in isopropanol, 283.15 K
Observation Type: solubility (mole fraction)
Would you mind answering with just the numeric figure?

Problem: Sample NC(=O)N/N=C/c1ccc([N+](=O)[O-])o1 — what was its solubility (mole fraction)?
Result: 3.27e-05

----------
details: in acetonitrile, 288.15 K
Observation Type: solubility (mole fraction)
Please reply with the value in numeric form only.

Problem: Which solubility (mole fraction) is listed for NC(=O)N/N=C/c1ccc([N+](=O)[O-])o1 ?
Result: 0.000116

----------
conditions: in isopropanol, 293.15 K
Observation Type: solubility (mole fraction)
Give a plain numeric answer without units written out.

Problem: Name the reported solubility (mole fraction) value associated with the compound NC(=O)N/N=C/c1ccc([N+](=O)[O-])o1
Result: 5.09e-05

----------
details: in isopropanol, 278.15 K
Observation Type: solubility (mole fraction)
Answer as a number with no unit attached.

Problem: // lookup solubility (mole fraction) for NC(=O)N/N=C/c1ccc([N+](=O)[O-])o1
Result: 2.66e-05

----------
settings: in formamide, 278.15 K
Observation Type: solubility (mole fraction)

Problem: I am curious: what solubility (mole fraction) value has been reported for NC(=O)N/N=C/c1ccc([N+](=O)[O-])o1 ?
Result: 0.00131

----------
settings: in water, 288.15 K
Observation Type: solubility (mole fraction)
Answer with the value's number alone.

Problem: Using the record for NC(=O)N/N=C/c1ccc([N+](=O)[O-])o1 , report its solubility (mole fraction).
Result: 8.03e-06

----------
settings: in ethanol, 308.15 K
Observation Type: solubility (mole fraction)
Answer with the value's number alone.

Problem: Would you kindly share the measured solubility (mole fraction) for NC(=O)N/N=C/c1ccc([N+](=O)[O-])o1 ?
Result: 0.000203

----------
settings: in n-propanol, 313.15 K
Observation Type: solubility (mole fraction)
Answer with a bare number; do not write a unit.

Problem: Need solubility (mole fraction), item NC(=O)N/N=C/c1ccc([N+](=O)[O-])o1
Result: 0.000164

----------
settings: in formamide, 308.15 K
Observation Type: solubility (mole fraction)
Please respond with just the number, no unit label.

Problem: Recorded solubility (mole fraction) of NC(=O)N/N=C/c1ccc([N+](=O)[O-])o1 , please.
Result: 0.00313

----------
details: in ethanol, 283.15 K
Observation Type: solubility (mole fraction)
Form rule: numeric answer, no unit written next to it.

Problem: Please report the recorded solubility (mole fraction) for NC(=O)N/N=C/c1ccc([N+](=O)[O-])o1 .
Result: 7.3e-05

----------
conditions: in methanol, 308.15 K
Observation Type: solubility (mole fraction)

Problem: Which solubility (mole fraction) is listed for NC(=O)N/N=C/c1ccc([N+](=O)[O-])o1 ?
Result: 0.000404

----------
conditions: in formamide, 298.15 K
Observation Type: solubility (mole fraction)

Problem: Requested field: solubility (mole fraction). Item: NC(=O)N/N=C/c1ccc([N+](=O)[O-])o1
Result: 0.0024

----------
details: in acetonitrile, 293.15 K
Observation Type: solubility (mole fraction)
Keep it simple and answer with nothing but the number.

Problem: # input molecule: NC(=O)N/N=C/c1ccc([N+](=O)[O-])o1 ; wanted: its solubility (mole fraction)
Result: 0.000146

----------
conditions: in ethyl acetate, 303.15 K
Observation Type: solubility (mole fraction)
// keep it numeric: no unit symbol after the value

Problem: # query: solubility (mole fraction) of entry NC(=O)N/N=C/c1ccc([N+](=O)[O-])o1
Result: 0.000151
